- Test system: GLP-1 receptor
- test: GLP-1 receptor activation, in vitro assays
- Format: cell-based
- conditions: activity relative to the activity of GLP-1(7-37)OH
Where no end group is shown, it is not given here.
recorded_metric: GLP-1 Receptor Activation

Val^8-His^27-GLP-1(7-37)OH (HVEGTFTSDVSSYLEGQAAKHFIAWLVKGRG) : 0.37
Val^8-Ser^22-GLP-1(7-37)OH (HVEGTFTSDVSSYLESQAAKEFIAWLVKGRG) : 0.50
Val^8-Ala^16-GLP-1(7-37)OH (HVEGTFTSDASSYLEGQAAKEFIAWLVKGRG) : 0.112
Val^8-Leu^16-Glu^26-GLP-1(7-37)OH (HVEGTFTSDLSSYLEGQAAEEFIAWLVKGRG) : 0.23

a = Val^8-Glu^33-GLP-1(7-37)OH (HVEGTFTSDVSSYLEGQAAKEFIAWLEKGRG)
b = Val^8-Lys^33-Val^34-GLP-1(7-37)OH (HVEGTFTSDVSSYLEGQAAKEFIAWLKVGRG)
c = Val^8-Lys^22-GLP-1(7-37)OH (HVEGTFTSDVSSYLEKQAAKEFIAWLVKGRG)
Sort the substances on GLP-1 Receptor Activation; start with the lowest figure. Please write the labels in the order that was asked for.
a, b, c
(a: 0.039, b: 0.08, c: 0.58)

A = Val^8-Pro^22-GLP-1(7-37)OH (HVEGTFTSDVSSYLEPQAAKEFIAWLVKGRG)
B = Val^8-Asp^30-GLP-1(7-37)OH (HVEGTFTSDVSSYLEGQAAKEFIDWLVKGRG)
Thinking about recorded GLP-1 Receptor Activation values, which is higher, A or B ? Provide the label of your selected option as the answer.
B
(B: 0.15, A: 0.01)

a = Val^8-Lys^22-GLP-1(7-36)NH2 (HVEGTFTSDVSSYLEKQAAKEFIAWLVKGR-NH2)
b = Val^8-His^36-GLP-1(7-37)OH (HVEGTFTSDVSSYLEGQAAKEFIAWLVKGHG)
Which record would sort first by descending GLP-1 Receptor Activation, a or b ? I would appreciate it if you answered with the label of your choice.
a

1 = Val^8-Ser^30-GLP-1(7-37)OH (HVEGTFTSDVSSYLEGQAAKEFISWLVKGRG)
2 = Gly^8-Glu^30-GLP-1(7-37)OH (HGEGTFTSDVSSYLEGQAAKEFIEWLVKGRG)
3 = Ala^8-Glu^26-GLP-1(7-37)OH (HAEGTFTSDVSSYLEGQAAEEFIAWLVKGRG)
Ascending sort, GLP-1 Receptor Activation. List labels; respect the requested ordering.
1, 2, 3
(1: 0.19, 2: 0.29, 3: 0.7)

I = Val^8-Glu^30-GLP-1(7-37)OH (HVEGTFTSDVSSYLEGQAAKEFIEWLVKGRG)
II = Gln^22-GLP-1(7-37)OH (HAEGTFTSDVSSYLEQQAAKEFIAWLVKGRG)
III = Val^8-Glu^35-GLP-1(7-37)OH (HVEGTFTSDVSSYLEGQAAKEFIAWLVKERG)
IV = Val^8-Tyr^12-GLP-1(7-37)OH (HVEGTYTSDVSSYLEGQAAKEFIAWLVKGRG)
V = Val^8-Pro^35-GLP-1(7-37)OH (HVEGTFTSDVSSYLEGQAAKEFIAWLVKPRG)
List these items ordered by GLP-1 Receptor Activation, big to small. Submit the labels in the order that the ranking request calls for.
IV, II, I, III, V
(IV: 0.81, II: 0.42, I: 0.29, III: 0.15, V: 0.094)

a = Val^8-Asp^22-GLP-1(7-37)OH (HVEGTFTSDVSSYLEDQAAKEFIAWLVKGRG)
b = Val^8-Lys^23-GLP-1(7-37)OH (HVEGTFTSDVSSYLEGKAAKEFIAWLVKGRG)
c = Ala^8-His^26-GLP-1(7-37)OH (HAEGTFTSDVSSYLEGQAAHEFIAWLVKGRG)
d = Val^8-Glu^36-GLP-1(7-37)OH (HVEGTFTSDVSSYLEGQAAKEFIAWLVKGEG)
Provide the items ranked by increasing GLP-1 Receptor Activation. Answer by listing the labels in the requested order.
d, b, a, c
(d: 0.11, b: 0.18, a: 0.40, c: 0.8)

P = Val^8-Ala^22-GLP-1(7-37)OH (HVEGTFTSDVSSYLEAQAAKEFIAWLVKGRG)
Q = Val^8-His^37-GLP-1(7-37)OH (HVEGTFTSDVSSYLEGQAAKEFIAWLVKGRH)
Between P and Q , which one shows the larger GLP-1 Receptor Activation value? Your answer should be the label attached to the chosen record.
P

1 = Val^8-Lys^20-GLP-1(7-37)OH (HVEGTFTSDVSSYKEGQAAKEFIAWLVKGRG)
2 = Val^8-His^30-GLP-1(7-37)OH (HVEGTFTSDVSSYLEGQAAKEFIHWLVKGRG)
Please indicate which entry, 1 or 2 , has the lower recorded GLP-1 Receptor Activation value. Record your answer as the label of the chosen record.
2
